Target: T1, Axl (Homo sapiens, UniProt P30530)
T1 sequence (P30530 26-451 limits assumed): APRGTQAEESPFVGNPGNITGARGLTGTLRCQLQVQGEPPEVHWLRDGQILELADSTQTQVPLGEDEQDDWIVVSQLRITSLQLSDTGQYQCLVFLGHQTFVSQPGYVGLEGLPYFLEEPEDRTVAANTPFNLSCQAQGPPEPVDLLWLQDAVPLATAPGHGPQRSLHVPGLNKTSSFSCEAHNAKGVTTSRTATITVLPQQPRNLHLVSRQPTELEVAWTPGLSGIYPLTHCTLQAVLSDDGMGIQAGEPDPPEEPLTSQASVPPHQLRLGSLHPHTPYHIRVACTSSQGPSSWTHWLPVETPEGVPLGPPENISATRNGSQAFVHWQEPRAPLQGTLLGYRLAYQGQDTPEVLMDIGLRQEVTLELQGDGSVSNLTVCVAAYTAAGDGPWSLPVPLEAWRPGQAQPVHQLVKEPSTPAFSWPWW
Experiment: Affinity ELISA of CPE mutant antibodies for binding to Axl at pH 6.0 over pH 7.4
Conditions: light chain variable region mutants; 1:3 dilution
RESULT_TYPE: Affinity ELISA CPE mutant ratio (1:3, pH 6.0/7.4)

{"MOLECULE": "LC-P095V (antibody, V domains shown) VH: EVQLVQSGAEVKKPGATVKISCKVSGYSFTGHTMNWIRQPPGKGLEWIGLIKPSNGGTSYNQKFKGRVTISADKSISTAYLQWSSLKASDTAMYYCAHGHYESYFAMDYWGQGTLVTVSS VL: DIQMTQSPSSLSASVGDRVTITCKASQDVSSAVAWYQQKPGQAPRLLIYWASTRHTGVPSRFSGSGSGTEFTLTISSLQPDDFATYYCQEHFSTVLTFGQGTKVEIK", "ASSAY_VALUE": 1.871}
{"MOLECULE": "LC-A034N (antibody, V domains shown) VH: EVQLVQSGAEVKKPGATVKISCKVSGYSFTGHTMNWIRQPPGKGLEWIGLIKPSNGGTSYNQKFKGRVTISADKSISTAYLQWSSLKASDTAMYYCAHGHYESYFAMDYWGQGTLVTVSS VL: DIQMTQSPSSLSASVGDRVTITCKASQDVSSAVNWYQQKPGQAPRLLIYWASTRHTGVPSRFSGSGSGTEFTLTISSLQPDDFATYYCQEHFSTPLTFGQGTKVEIK", "ASSAY_VALUE": 2.626}
{"MOLECULE": "LC-H091V (antibody, V domains shown) VH: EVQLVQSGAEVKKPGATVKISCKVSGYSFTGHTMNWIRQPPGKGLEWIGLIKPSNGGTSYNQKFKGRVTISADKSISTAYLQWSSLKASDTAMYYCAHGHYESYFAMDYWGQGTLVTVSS VL: DIQMTQSPSSLSASVGDRVTITCKASQDVSSAVAWYQQKPGQAPRLLIYWASTRHTGVPSRFSGSGSGTEFTLTISSLQPDDFATYYCQEVFSTPLTFGQGTKVEIK", "ASSAY_VALUE": 4.133}
{"MOLECULE": "LC-F092C (antibody, V domains shown) VH: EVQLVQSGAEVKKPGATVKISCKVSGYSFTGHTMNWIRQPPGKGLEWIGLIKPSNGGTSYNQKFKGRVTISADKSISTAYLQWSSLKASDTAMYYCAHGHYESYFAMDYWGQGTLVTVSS VL: DIQMTQSPSSLSASVGDRVTITCKASQDVSSAVAWYQQKPGQAPRLLIYWASTRHTGVPSRFSGSGSGTEFTLTISSLQPDDFATYYCQEHCSTPLTFGQGTKVEIK", "ASSAY_VALUE": 3.862}
{"MOLECULE": "LC-W050F (antibody, V domains shown) VH: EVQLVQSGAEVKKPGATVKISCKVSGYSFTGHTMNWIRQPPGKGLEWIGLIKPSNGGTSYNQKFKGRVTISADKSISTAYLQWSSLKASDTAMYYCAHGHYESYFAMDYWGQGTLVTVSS VL: DIQMTQSPSSLSASVGDRVTITCKASQDVSSAVAWYQQKPGQAPRLLIYFASTRHTGVPSRFSGSGSGTEFTLTISSLQPDDFATYYCQEHFSTPLTFGQGTKVEIK", "ASSAY_VALUE": 2.245}

Numbers sourced from patent US20250276075A1.
